# test target: ΔF508-CFTR (Homo sapiens, UniProt P13569, DEL508-508)
# Construct: expressed in transfected cells
# Sequence (P13569 with tags, fused parts or gaps DEL508-508): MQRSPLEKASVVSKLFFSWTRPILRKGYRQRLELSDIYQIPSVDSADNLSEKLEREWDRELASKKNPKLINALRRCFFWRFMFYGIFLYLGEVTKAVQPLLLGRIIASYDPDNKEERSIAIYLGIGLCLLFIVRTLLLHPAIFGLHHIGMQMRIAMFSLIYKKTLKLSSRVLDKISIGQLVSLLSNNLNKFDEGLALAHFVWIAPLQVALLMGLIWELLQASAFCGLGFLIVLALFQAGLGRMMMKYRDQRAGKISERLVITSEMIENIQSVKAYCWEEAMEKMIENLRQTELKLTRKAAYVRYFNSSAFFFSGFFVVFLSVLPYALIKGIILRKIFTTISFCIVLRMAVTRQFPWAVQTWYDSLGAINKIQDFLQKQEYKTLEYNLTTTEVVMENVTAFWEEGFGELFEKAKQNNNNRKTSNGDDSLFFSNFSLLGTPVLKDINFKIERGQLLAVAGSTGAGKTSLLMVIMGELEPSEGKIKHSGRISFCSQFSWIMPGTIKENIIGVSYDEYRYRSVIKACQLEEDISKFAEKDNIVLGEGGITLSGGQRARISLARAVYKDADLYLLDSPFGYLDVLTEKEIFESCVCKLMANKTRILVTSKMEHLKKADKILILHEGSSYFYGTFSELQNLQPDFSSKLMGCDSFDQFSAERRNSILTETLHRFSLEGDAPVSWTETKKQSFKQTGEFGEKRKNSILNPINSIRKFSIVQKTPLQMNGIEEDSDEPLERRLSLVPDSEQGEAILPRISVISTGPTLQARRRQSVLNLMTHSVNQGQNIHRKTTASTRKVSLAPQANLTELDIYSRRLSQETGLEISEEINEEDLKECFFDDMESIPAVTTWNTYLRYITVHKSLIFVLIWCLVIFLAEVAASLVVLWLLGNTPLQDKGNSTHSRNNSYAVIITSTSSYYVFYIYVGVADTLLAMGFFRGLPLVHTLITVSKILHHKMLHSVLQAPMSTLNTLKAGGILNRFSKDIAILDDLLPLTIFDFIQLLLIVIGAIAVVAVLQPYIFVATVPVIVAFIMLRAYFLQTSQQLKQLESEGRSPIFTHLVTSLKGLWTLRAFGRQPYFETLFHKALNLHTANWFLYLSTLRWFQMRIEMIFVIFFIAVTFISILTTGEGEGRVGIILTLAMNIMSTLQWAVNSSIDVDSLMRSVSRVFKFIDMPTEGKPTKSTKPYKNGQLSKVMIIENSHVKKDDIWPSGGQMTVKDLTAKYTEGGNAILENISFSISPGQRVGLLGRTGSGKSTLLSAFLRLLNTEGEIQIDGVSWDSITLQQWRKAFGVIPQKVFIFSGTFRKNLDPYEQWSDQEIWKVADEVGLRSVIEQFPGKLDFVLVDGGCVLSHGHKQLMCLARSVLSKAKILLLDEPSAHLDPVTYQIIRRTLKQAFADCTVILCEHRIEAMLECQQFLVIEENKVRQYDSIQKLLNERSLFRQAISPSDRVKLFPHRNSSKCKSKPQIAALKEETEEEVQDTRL
# assay remarks: Membrane potential optical assay (FRET/VIPR), identification of correction compounds
# Assay type: cell-based
# experimental parameters: relative efficacy
# Excerpt: I) Membrane Potential Optical Methods for Assaying ΔF508-CFTR Modulation Properties of Compounds […] These voltage sensitive assays are based on the change in fluorescence resonant energy transfer (FRET) between the membrane-soluble, voltage-sensitive dye, DiSBAC2(3), and a fluorescent phospholipid, CC2-DMPE, which is attached to the outer leaflet of the plasma membrane and acts as a FRET donor. […]
The entries below come with measured Emax values attached.

Consider the worked cases shown below.
CC(c1nc2cc(Cl)ccc2c(=O)n1C)N1CCN(C(=O)c2cccc(C(F)(F)F)c2)CC1 (stereo not shown) = 25 to 100%
COc1cc2nc(C(C)N3CCN(S(=O)(=O)c4ccc(Cl)cc4)CC3)n(C)c(=O)c2cc1OC (stereo not shown) = 25 to 100%
COc1ccc(S(=O)(=O)N2CCN(C(C)c3nc(N4CCCC(CO)C4)c4ccccc4n3)CC2)cc1 (stereo not shown) = 25 to 100%

Let us move to another entry and its Emax.
// Input: COc1ccc(S(=O)(=O)N2CCN(C(C)c3nc4ccc(C#N)cc4c(=O)n3C)CC2)cc1 (stereo not shown) . Output its Emax only.
25 to 100%

From: patent US8642609B2
